These measurements were taken from patent US20260132182A1.

- testedSystem: human GLP-1 receptor (human, UniProt P43220 24-463)
- testProtocol: cell-based or functional assay
Starred links: 1 amine or outer side, 2 acyl side, 3 side chain; linkers in the order of their positions; H or OH if unused. Non-standard residues stand in square brackets, D forms with d. Groups on a side chain read outwards from the residue. *: point of attachment. C20 diacid = O=C(O)CCCCCCCCCCCCCCCCCCC(=O)*; C18 diacid = O=C(O)CCCCCCCCCCCCCCCCC(=O)*; γGlu = O=C(O)[C@H](CCC(=O)[*:2])N[*:1]; Trx = NC[C@H]1CC[C@H](C(=O)O)CC1; AEEA = NCCOCCOCC(=O)O; Aib = CC(C)(N)C(=O)O
Human GLP-1R potency [EC50 (pM)] listing for selected binders.
Write the value in pM as a bare number.

| binder | Human GLP-1R potency [EC50 (pM)] |
| --- | --- |
| Compound 0266 (peptide) peptide: H[Aib]EGTFTSDK([AEEA-AEEA-γGlu-Trx-C20 diacid])SSYLEEQAAREFIAWLVRGRGGGGEASELSTAALGRLSAELHELATLPRTETGSGSP-NH2 | 6.3 |

Can you look up the measured Human GLP-1R potency [EC50 (pM)] of Compound 0648 (peptide) peptide: HWEGTFTSDVSSYLEEQAAREFIAWLVRGRK([AEEA-AEEA-γGlu-C18 diacid])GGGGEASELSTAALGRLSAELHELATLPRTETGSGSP-NH2 for me?
17

Can you look up the measured Human GLP-1R potency [EC50 (pM)] of Compound 0095 (peptide) peptide: H[Aib]EGTFTSDVSSYLEGQAAK([AEEA-AEEA-γGlu-Trx-C20 diacid])EFIAWLVRGRGGGGGGGGGEASELSTAALGRLSAELHELATLPRTETGSGSP-NH2 for me?
7.4

Can you look up the measured Human GLP-1R potency [EC50 (pM)] of Compound 0518 (peptide) peptide: H[Aib]EGTFTSDVSK([AEEA-AEEA-γGlu-Trx-C20 diacid])YLEEQAAREFIAWLVRGRGGGGGEASELSTAALGRLSAELHELATLPRTETGSGSP-NH2 for me?
3.4
